From: paper PMC6255099

Reported pIC50 values for a set of compounds
# System Tested: serotonin re-uptake transport protein (Rattus norvegicus, UniProt P31652)
# Sequence (P31652 whole entry): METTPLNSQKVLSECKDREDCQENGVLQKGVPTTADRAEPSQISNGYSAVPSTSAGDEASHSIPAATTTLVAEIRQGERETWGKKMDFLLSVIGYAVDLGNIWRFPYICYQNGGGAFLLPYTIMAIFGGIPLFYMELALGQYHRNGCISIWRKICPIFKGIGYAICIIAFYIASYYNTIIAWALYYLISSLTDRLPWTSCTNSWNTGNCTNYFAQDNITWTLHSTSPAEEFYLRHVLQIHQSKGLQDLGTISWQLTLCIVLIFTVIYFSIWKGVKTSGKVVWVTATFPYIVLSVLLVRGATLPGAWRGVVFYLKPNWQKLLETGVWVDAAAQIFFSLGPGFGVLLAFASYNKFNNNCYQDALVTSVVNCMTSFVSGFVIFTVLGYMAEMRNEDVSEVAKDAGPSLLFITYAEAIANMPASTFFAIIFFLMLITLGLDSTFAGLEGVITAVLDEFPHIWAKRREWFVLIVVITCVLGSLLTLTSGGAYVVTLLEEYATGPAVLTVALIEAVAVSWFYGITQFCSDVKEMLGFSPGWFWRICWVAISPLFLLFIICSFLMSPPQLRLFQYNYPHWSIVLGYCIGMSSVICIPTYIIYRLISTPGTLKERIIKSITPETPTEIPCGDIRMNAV
# Method: [3H]-citalopram binding assay (serotonin re-uptake inhibition assay)
# Condition Details: mean ± standard error; n.d. = not detected in tested concentrations below 10 mM; read-out: [3H]-citalopram binding assay IC50
To interpret pIC50, take it as minus log10 of a concentration measured in moles per litre.

> print(dat)
                                   compound  reported.measurement
1  O=C(/C=C/CCc1cc2c(cc1Cl)OCO2)N1CCCCC1 [Compound 8]                  2.57
2  O=C(/C=C/CCc1ccc2c(c1)OCO2)N1CCCCC1 [Compound 2, 4,5-Dihydropiperine]                  2.53

Here's the next entry for you.
Q. Any idea what its pIC50 is? The compound is O=C(CCCCc1ccc2c(c1)OCO2)N1CCCCC1 [Compound 4, Tetrahydropiperidine]
A. 3.23
